system: tet operator sequence; assay: β-galactosidase activity of a tetracycline-regulated promoter in transformed E. coli with revTetR, in the presence and absence of anhydrotetracycline (atc); assay type: cell-based, Escherichia coli; conditions: RevTetR isolate cultured in the presence of anhydrotetracycline (ATC)
Catalogue of molecules with associated β-Galactosidase Activity, Cultured With ATC
experimental endpoint: β-Galactosidase Activity, Cultured With ATC

>>> val("TetRrevAF4/4: revTetR(BD) G24A R94P D95E G102D (protein, Modified tetracycline repressor, revTetR(BD) G24A R94P D95E G102D) MSRLDKSKVINSALELLNEVGIEALTTRKLAQKLGVEQPTLYWHVKNKRALLDALAVEILARHHDYSLPAAGESWQSFLRNNAMSFRRALLRYPEGAKVHLDTRPDEKQYDTVETQLRFMTENGFSLRDGLYAISAVSHFTLGAVLEQQEHTAALTDRPAAPDENLPPLLREALQIMDSDDGEQAFLHGLESLIRGFEVQLTALLQIV")
3.8273
>>> val("TetRrevAD3/8: revTetR(BD) L16L A56A V57E E58L I59N L60A (protein, Modified tetracycline repressor, revTetR(BD) L16L A56A V57E E58L I59N L60A) MSRLDKSKVINSALELLNEVGIEGLTTRKLAQKLGVEQPTLYWHVKNKRALLDALAELNVARHHDYSLPAAGESWQSFLRNNAMSFRRALLRYRDGAKVHLGTRPDEKQYDTVETQLRFMTENGFSLRDGLYAISAVSHFTLGAVLEQQEHTAALTDRPAAPDENLPPLLREALQIMDSDDGEQAFLHGLESLIRGFEVQLTALLQIV")
1.9046
